# System: SK-MEL-28 melanoma
# assaySummary: NCI tumour cell line growth inhibition, 48 h
Reported values of TGI for individual entries

Example compounds with recorded TGI:
INSERT INTO assay_data (compound, assayvalue) VALUES
  ('O=C(CCN1CCCC1)CC(c1ccccc1)c1c(O)c2ccccc2oc1=O (stereo not drawn)', '> 100 µM'),
  ('OC1CC2CCCN(CCc3c1[nH]c1ccccc31)C2 (stereo not drawn)', '> 100 µM'),
  ('CC(C)NCC(O)c1cc(OCc2ccccc2)c(OCc2ccccc2)cc1NC(=O)CCC(=O)O (stereo not drawn)', '9.37 µM');

(Q) Entry under review: CC(=O)[CH-]C(C)=O.CC(=O)[CH-]C(C)=O.[CH2-]CCCCCCC.[CH2-]CCCCCCC.[Sn+4] . Reported TGI?
(A) 28.4 µM

(Q) Subsequent entry: Nc1nc2c(ncn2CC2CCC(CO)C2)c(=O)[nH]1 (stereo not drawn)
(A) > 100 µM

(Q) Entry to check: COc1ccc(OC)c(N2C(=O)/C(=C\c3ccccc3)SC2c2cc(OC)c(OC)c(OC)c2)c1 (stereo not drawn)
(A) > 100 µM

(Q) Same for Cn1ccnc1Sc1ccc(/C=N/NC(=O)c2ccccc2[N+](=O)[O-])cc1[N+](=O)[O-]
(A) > 100 µM

(Q) Now the same for CC1=NN(c2nc(N)nc(/C(C#N)=C\C3COc4ccccc4C3=O)n2)C(C)(C)C1 (stereo not drawn)
(A) > 100 µM
